System: Spontaneously hypertensive rats (SHR)
Assay: Antihypertensive activity in conscious spontaneously hypertensive rats (mean arterial pressure)
Type: in vivo
Conditions: Rattus norvegicus, 5 min; SHR iv, 1 mg/kg, 5 minutes after dose
measure name: change in vivo at 1 mg/kg (%)
State just the number; it will be interpreted in %.

Example compounds with recorded change in vivo at 1 mg/kg:
structure string	scale unit	reported value
CCc1[nH]n(C2CCCC2)c2nc(-c3ccccc3C)nc(=O)c1-2	%	-7
CCCOc1ccccc1-c1nc2n(C3CCCC3)[nH]c(C)c-2c(=O)n1	%	-5
CCc1[nH]n(C2CCCC2)c2nc(-c3ccccc3OC)nc(=O)c1-2	%	-8
CCc1[nH]n(C2CCCC2)c2nc(-c3cccc(OCCN4CCOCC4)c3)nc(=O)c1-2	%	-14

Query :: Read the entry "CCc1nn(C2CCCC2)c2nc(-c3ccc(OCCN4CCOCC4)c(OCCN4CCOCC4)c3)[nH]c(=O)c12" and write its reported change in vivo at 1 mg/kg.
Result :: -18

* * *

Biological target: cGMP-PDE V (Homo sapiens, UniProt O76074)
Test: biochemical
Design: species or system various animal species and man
Settings: 1 μM; read-out: Percent Inhibition cGMP-PDE V
Description: The cGMP-PDE and other PDE isozymes were isolated from cardiovascular tissues (heart and aorta) of various animal species and man by anion-exchange and affinity chromatography as described by Silver et al., Sec. Messeng. Phos. 13:13-25, 1991; PDE activity, in the presence and absence of test compounds was determined essentially as described by Thompson et al., Adv. Cyclic Nucleotide Res. 10:69-92. […]
Catalogue of molecules with associated inhibition at 1 µM
State just the number; it will be interpreted in %.

molecule	reported value
CCc1nn(C2CCCC2)c2nc(-c3ccccc3OCC(=O)O)[nH]c(=O)c12 [Example 16, hydrate]	19
CCOc1cc(N(CC)CC)ccc1-c1nc2n(C3CCCC3)[nH]c(CC)c-2c(=O)n1	73
CCc1[nH]n(C2CCCC2)c2nc(-c3ccc([N+](=O)[O-])cc3)nc(=O)c1-2	40

# next molecule below
Query :: Read the entry "CCc1[nH]n(C2CCCC2)c2nc(-c3ccc(OCCCN(C)C)cc3)nc(=O)c1-2" and write its reported inhibition at 1 µM.
Result :: 15

* * *

Catalogue of molecules with associated inhibition at 0.1 µM
Target: cGMP-PDE V (Homo sapiens)
Test: biochemical
Parameters: species or system various animal species and man
Conditions: 0.1 μM; read-out: Percent Inhibition cGMP-PDE V
Please state the number and follow it with the unit.

molecule	measure name	reported value
CCc1[nH]n(C2CCCC2)c2nc(-c3cc(OCCN4CCOCC4)cc(OCCN4CCOCC4)c3)nc(=O)c1-2 [38 (b)]	inhibition at 0.1 µM	63%
CCc1[nH]n(C2CCCC2)c2nc(-c3ccc(NS(C)(=O)=O)cc3)nc(=O)c1-2 [Example 33]	inhibition at 0.1 µM	21%
CCc1[nH]n(C2CCCC2)c2nc(-c3cccc(OCC(=O)N4CCOCC4)c3)nc(=O)c1-2 [40 (d)]	inhibition at 0.1 µM	47%

Query :: Look up and report measured inhibition at 0.1 µM (cGMP-PDE V (Homo sapiens)) for the following molecule: CCc1nn(C2CCCC2)c2nc(-c3ccc(-n4ccnc4)cc3)[nH]c(=O)c12 [8 (b)]
Result :: 32%

Query :: Look up and report measured inhibition at 0.1 µM (cGMP-PDE V (Homo sapiens)) for the following molecule: CCc1nn(C2CCCC2)c2nc(-c3ccc(N)cc3)[nH]c(=O)c12 [Example 31, hydrate]
Result :: 31%

Query :: Look up and report measured inhibition at 0.1 µM (cGMP-PDE V (Homo sapiens)) for the following molecule: C=CCc1cccc(-c2nc3n(C4CCCC4)[nH]c(CC)c-3c(=O)n2)c1O [Example 36]
Result :: 0%

Query :: Look up and report measured inhibition at 0.1 µM (cGMP-PDE V (Homo sapiens)) for the following molecule: CCOc1cc(-n2ccnc2)ccc1-c1nc2n(C3CCCC3)[nH]c(CC)c-2c(=O)n1 [46 (c)]
Result :: 26%

Query :: Look up and report measured inhibition at 0.1 µM (cGMP-PDE V (Homo sapiens)) for the following molecule: CCc1[nH]n(C2CCCC2)c2nc(-c3cccc(O)c3)nc(=O)c1-2 [Example 44]
Result :: 29%

* * *

Below are IC50 values measured for cGMP-PDE V (Homo sapiens).
State just the number; it will be interpreted in µM.

structure string	measure name	reported value
C=CCOc1ccccc1-c1nc2c(c(CC)nn2C2CCCC2)c(=O)[nH]1	IC50	0.0049
CCc1[nH]n(C2CCCC2)c2nc(-c3cccc(OCC(=O)O)c3)nc(=O)c1-2	IC50	0.093
CCOc1cc(-n2ccnc2)ccc1-c1nc2n(C3CCCC3)[nH]c(CC)c-2c(=O)n1	IC50	0.018

# next compound below
Query :: Look up and report measured IC50 (cGMP-PDE V (Homo sapiens)) for the following compound: "CCc1[nH]n(C2CCCC2)c2nc(-c3cccc(OCCN4CCOCC4)c3)nc(=O)c1-2"
Result :: 0.107

* * *

Biological target: cGMP-PDE V (Homo sapiens, UniProt O76074)
Experiment: biochemical
Design: species or system various animal species and man
Conditions: 10 μM; read-out: Percent Inhibition cGMP-PDE V
Catalogue of compounds with associated inhibition at 10 µM
State just the number; it will be interpreted in %.

Example compounds with recorded inhibition at 10 µM:
compound	scale unit	inhibition at 10 µM
CCc1[nH]n(C2CCCC2)c2nc(-c3ccccc3O)nc(=O)c1-2	%	51
CCOc1cc(-n2ccnc2)ccc1-c1nc2n(C3CCCC3)[nH]c(CC)c-2c(=O)n1	%	90

Query :: Read the entry CCc1nn(C2CCCC2)c2nc(-c3ccccc3OCC(=O)O)[nH]c(=O)c12 [Example 16, hydrate] and write its reported inhibition at 10 µM.
Result :: 68

Query :: Read the entry "CCc1[nH]n(C2CCCC2)c2nc(-c3ccc(OCCCN(C)C)cc3)nc(=O)c1-2" and write its reported inhibition at 10 µM.
Result :: 85

* * *

Catalogue of compounds with associated ED25
System: Spontaneously hypertensive rats (SHR)
Assay: Antihypertensive activity in conscious spontaneously hypertensive rats (mean arterial pressure)
Assay type: in vivo
Conditions: Rattus norvegicus, 5 min; SHR iv
State just the number; it will be interpreted in mg/kg.

Example compounds with recorded ED25:
compound	ED25, mg/kg
CCc1nn(C2CCCC2)c2nc(-c3ccc(-n4ccnc4)cc3)[nH]c(=O)c12 [8 (a), hydrate]	5.7
CCc1[nH]n(C2CCCC2)c2nc(-c3cccc(OCCN4CCCC4)c3)nc(=O)c1-2 [22 (b)]	17.9
CCc1[nH]n(C2CCCC2)c2nc(-c3cccc(OCCN4CCCCC4)c3)nc(=O)c1-2 [19 (b)]	12.5
CCc1nn(C2CCCC2)c2nc(-c3ccc(OCCN4CCOCC4)c(OCCN4CCOCC4)c3)[nH]c(=O)c12 [25 (b)]	4.5
CCc1[nH]n(C2CCCC2)c2nc(-c3cccc(OCCN4CCOCC4)c3)nc(=O)c1-2 [13 (b)]	9.5

# next compound below
Query :: Read the entry CCc1[nH]n(C2CCCC2)c2nc(-c3cccc(-n4ccnc4)c3)nc(=O)c1-2 [24 (c)] and write its reported ED25.
Result :: 12.7

* * *

Catalogue of compounds with associated inhibition at 1 µM
Target: cGMP-PDE V (Homo sapiens)
Assay: biochemical
Design: species or system various animal species and man
Settings: 1 μM; read-out: Percent Inhibition cGMP-PDE V
State just the number; it will be interpreted in %.

Example compounds with recorded inhibition at 1 µM:
compound	inhibition at 1 µM, %
CCc1[nH]n(C2CCCC2)c2nc(-c3ccccc3-n3ccnc3)nc(=O)c1-2	73
CCc1nn(C2CCCC2)c2nc(-c3ccc(N)cc3)[nH]c(=O)c12 [Example 31, hydrate]	61
CCc1[nH]n(C2CCCC2)c2nc(-c3cccc(OCC(=O)N4CCOCC4)c3)nc(=O)c1-2	74

Query :: Read the entry "CCc1[nH]n(C2CCCC2)c2nc(-c3ccccc3O)nc(=O)c1-2" and write its reported inhibition at 1 µM.
Result :: 20

Query :: Read the entry "CCc1[nH]n(C2CCCC2)c2nc(-c3cccc(O)c3)nc(=O)c1-2" and write its reported inhibition at 1 µM.
Result :: 56

Query :: Read the entry CCc1nn(C2CCCC2)c2nc(-c3ccc4c(c3)CCO4)[nH]c(=O)c12 [Example 32, hydrate] and write its reported inhibition at 1 µM.
Result :: 47

Query :: Read the entry "CCc1[nH]n(C2CCCC2)c2nc(-c3ccc(NS(C)(=O)=O)cc3)nc(=O)c1-2" and write its reported inhibition at 1 µM.
Result :: 56

* * *

Molecular target: cGMP-PDE V (Homo sapiens, UniProt O76074)
Assay: biochemical
Design: species or system various animal species and man
Conditions: 1 μM; read-out: Percent Inhibition cGMP-PDE V
Catalogue of molecules with associated inhibition at 1 µM
State just the number; it will be interpreted in %.

molecule	inhibition at 1 µM [%]
CCc1[nH]n(C2CCCC2)c2nc(-c3cccc(OC4CCCCN(C)C4)c3)nc(=O)c1-2 (stereo not shown)	75
C=CCc1cccc(-c2nc3n(C4CCCC4)[nH]c(CC)c-3c(=O)n2)c1O	4
CCOc1cc(-n2ccnc2)ccc1-c1nc2n(C3CCCC3)[nH]c(CC)c-2c(=O)n1	76

# next molecule below
Query :: Read the entry "CCc1[nH]n(C2CCCC2)c2nc(-c3ccc(Cl)cc3O)nc(=O)c1-2" and write its reported inhibition at 1 µM.
Result :: 53
